tested system: ERR1 (also known as ERR-α or ERR-1) (Homo sapiens)
Sequence (P11474 193-421 limits assumed, species assumed): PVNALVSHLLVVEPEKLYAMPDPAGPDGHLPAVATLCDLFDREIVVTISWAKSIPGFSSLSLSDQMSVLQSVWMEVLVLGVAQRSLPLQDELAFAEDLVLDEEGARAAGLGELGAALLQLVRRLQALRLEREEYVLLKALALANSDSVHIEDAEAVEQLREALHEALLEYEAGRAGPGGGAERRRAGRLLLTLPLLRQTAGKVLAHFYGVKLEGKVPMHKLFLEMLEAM
protocol text: TR-FRET assay: disruption of co-activator peptide (GST-hSRC2) binding to 6His-tagged ERR1 LBD
condition notes: 6 nM ERR1LBD, 6 nM GST-SRC-2 peptide, 25° C., 4-18 hours; average of 3 independent experiments
Cut-off 10 nM on EC50: below means 1.0, at or above means 0.0.

[
  {
    "smiles representation": "O=C1N=C(NCc2cncnc2)S/C1=C\\c1ccc2c(cnn2Cc2ccc(Cl)cc2C(F)(F)F)c1",
    "discrete label": 1.0
  }
]

Exercise: Consider the molecule COc1ccc(Cn2ncc3cc(/C=C4\SC(NCCN5CCOCC5)=NC4=O)ccc32)c(C(F)(F)F)c1 . Is its EC50 strictly less than 10 nM?
Solution: 1.0

Exercise: Consider the molecule O=C(O)CCCNC1=NC(=O)/C(=C/c2ccc3c(cnn3Cc3ccc(Cl)cc3C(F)(F)F)c2)S1 . Is its EC50 strictly less than 10 nM?
Solution: 0.0

Exercise: Consider the molecule O=C1N=C(NCc2cccnc2)S/C1=C\c1ccc2c(cnn2Cc2ccc(Cl)cc2C(F)(F)F)c1 . Is its EC50 strictly less than 10 nM?
Solution: 0.0

Exercise: Consider the molecule CN1CCN(CCNC2=NC(=O)/C(=C/c3ccc4c(cnn4Cc4ccc(Cl)cc4C(F)(F)F)c3)S2)CC1 . Is its EC50 strictly less than 10 nM?
Solution: 1.0
